system: VCAM-1; test: ELISA of VCAM-1 expression in TNF-stimulated HUVEC; assay type: cell-based, human; settings: 50 nM oligo, TNF-α 16 hours
Strand notation (5' to 3'): a small letter for the sugar, then the base; units joined by * are phosphorothioate-linked, units joined directly phosphodiester-linked; [ ] holds rarer units or linkages, { } end groups; capitals alone tell only the bases. d = 2'-deoxy (DNA)
Reported VCAM-1 EXPRESSION 50 nM oligo (VCAM-1 expression is given as % of control) values are given for each entry in this list.
observedProperty: VCAM-1 EXPRESSION 50 nM oligo (VCAM-1 expression is given as % of control)

{"substance": "ISIS 5862: phosphorothioate, human VCAM-1 5′-UTR 48-68, SEQ ID NO 62, CCTGTGTGTGCCTGGGAGGG (DNA, all phosphorothioate, methylation of C not given here)", "resultValue": "3.5 % of control"}
{"substance": "ISIS 3794: phosphorothioate, human VCAM-1 TERMIN. 2344-2362, SEQ ID NO 69, TGAACATATCAAGCATTAGC (DNA, all phosphorothioate, methylation of C not given here)", "resultValue": "52.6 % of control"}
{"substance": "ISIS 5875: phosphorothioate, human VCAM-1 CODING 2183-2203, SEQ ID NO 68, GTCTTTGTTGTTTTCTCTTCC (DNA, all phosphorothioate, methylation of C not given here)", "resultValue": "34.8 % of control"}
{"substance": "ISIS 3792: phosphorothioate, human VCAM-1 AUG 110-129, SEQ ID NO 63, GGCATTTTAAGTTGCTGTCG (DNA, all phosphorothioate, methylation of C not given here)", "resultValue": "33.7 % of control"}
{"substance": "ISIS 5874: phosphorothioate, human VCAM-1 CODING 1032-1052, SEQ ID NO 65, CTTGAACAATTAATTCCACCT (DNA, all phosphorothioate, methylation of C not given here)", "resultValue": "35.3 % of control"}
{"substance": "ISIS 3791: phosphorothioate, human VCAM-1 5′UTR 38-58, SEQ ID NO 61, CCTGGGAGGGTATTCAGCT (antisense dG*dC*dC*dT*dG*dG*dG*dA*dG*dG*dG*dT*dA*dT*dT*dC*dA*dG*dC*dT)", "resultValue": "58.0 % of control"}
{"substance": "ISIS 5884: phosphorothioate, human VCAM-1 5′-UTR 1-19, SEQ ID NO 60, CGATGCAGATACCGCGGAGT (antisense dC*dG*dA*dT*dG*dC*dA*dG*dA*dT*dA*dC*dC*dG*dC*dG*dG*dA*dG*dT)", "resultValue": "37.2 % of control"}
{"substance": "ISIS 3805: phosphorothioate, human VCAM-1 3′-UTR 2826-2845, SEQ ID NO 71, CCCGGCATCTTTACAAAACC (DNA, all phosphorothioate, methylation of C not given here)", "resultValue": "44.9 % of control"}
{"substance": "ISIS 5863: phosphorothioate, human VCAM-1 CODING 745-764, SEQ ID NO 64, CAGCCTGCCTTACTGTGGGC (DNA, all phosphorothioate, methylation of C not given here)", "resultValue": "66.7 % of control"}
{"substance": "ISIS 5885: phosphorothioate, human VCAM-1 E/I 1633-1649 + intron, SEQ ID NO 66, TTACCATTGACATAAAGTGTT (DNA, all phosphorothioate, methylation of C not given here)", "resultValue": "52.4 % of control"}
{"substance": "ISIS 3800: phosphorothioate, human VCAM-1 3′-UTR 2620-2639, SEQ ID NO 70, GCAATCTTGCTATGGCATAA (DNA, all phosphorothioate, methylation of C not given here)", "resultValue": "47.7 % of control"}
{"substance": "ISIS 5847: phosphorothioate, human VCAM-1 3′-UTR 2957-2976, SEQ ID NO 72, AACATCTCCGTACCATGCCA (DNA, all phosphorothioate, methylation of C not given here)", "resultValue": "24.6 % of control"}
{"substance": "ISIS 3801: phosphorothioate, human VCAM-1 3′-UTR 2872-2892, SEQ ID NO 50, AACCCAGTGCTCCCTTTGCT (DNA, all phosphorothioate, methylation of C not given here)", "resultValue": "21.3 % of control"}
{"substance": "ISIS 5876: phosphorothioate, human VCAM-1 CODING 2038-2057, SEQ ID NO 67, CTGTGTCTCCTGTCTCCGCT (DNA, all phosphorothioate, methylation of C not given here)", "resultValue": "26.6 % of control"}

----------
system: ELAM-1; assay: ELISA of ELAM-1 expression in TNF-stimulated HUVEC; format: cell-based, human; conditions: 50 nM oligo; HUVEC, TNF-α […] 4 hours
Strand notation (5' to 3'): a small letter for the sugar, then the base; units joined by * are phosphorothioate-linked, units joined directly phosphodiester-linked; [ ] holds rarer units or linkages, { } end groups; capitals alone tell only the bases. d = 2'-deoxy (DNA)

{"substance": "ISIS 4756: phosphorothioate, human ELAM-1 I/E 177-196, SEQ ID NO 54, CCAAAGTGAGAGCTGAGAGA (antisense dC*dC*dA*dA*dA*dG*dT*dG*dA*dG*dA*dG*dC*dT*dG*dA*dG*dA*dG*dA)", "measuredTarget": "ELAM-1", "ELAM-1 expression (% of control)": "35.7 % of control"}
{"substance": "ISIS 4729: phosphorothioate, human ELAM-1 3′-UTR 2063-2082, SEQ ID NO 57, GGGCCAGAGACCCGAGGAGA (antisense dG*dG*dG*dC*dC*dA*dG*dA*dG*dA*dC*dC*dC*dG*dA*dG*dG*dA*dG*dA)", "measuredTarget": "ELAM-1", "ELAM-1 expression (% of control)": "46.3 % of control"}
{"substance": "ISIS 2678: P=S, human ELAM-1 3′-UTR 3557-3576, SEQ ID NO 32, ACCTCTGCTGTTCTGATCCT (antisense dA*dC*dC*dT*dC*dT*dG*dC*dT*dG*dT*dT*dC*dT*dG*dA*dT*dC*dC*dT)", "measuredTarget": "ELAM-1", "ELAM-1 expression (% of control)": "15.3 % of control"}
{"substance": "ISIS 2683: P=S, human ELAM-1 AUG 143-163, SEQ ID NO 35, AATCATGACTTCAAGAGTTCT (antisense dA*dA*dT*dC*dA*dT*dG*dA*dC*dT*dT*dC*dA*dA*dG*dA*dG*dT*dT*dC*dT)", "measuredTarget": "ELAM-1", "ELAM-1 expression (% of control)": "48.5 % of control"}
{"substance": "ISIS 4732: phosphorothioate, human ELAM-1 Coding 1936-1955, SEQ ID NO 55, CTGATTCAAGGCTTTGGCAG (antisense dC*dT*dG*dA*dT*dT*dC*dA*dA*dG*dG*dC*dT*dT*dT*dG*dG*dC*dA*dG)", "measuredTarget": "ELAM-1", "ELAM-1 expression (% of control)": "55.3 % of control"}
{"substance": "ISIS 4719: phosphorothioate, human ELAM-1 3′-UTR 2993-3012, SEQ ID NO 58, ACGTTTGGCCTCATGGAAGT (antisense dA*dC*dG*dT*dT*dT*dG*dG*dC*dC*dT*dC*dA*dT*dG*dG*dA*dA*dG*dT)", "measuredTarget": "ELAM-1", "ELAM-1 expression (% of control)": "34.7 % of control"}
{"substance": "ISIS 2670: P=S, human ELAM-1 3′-UTR 3717-3736, SEQ ID NO 29, ACCACACTGGTATTTCACAC (antisense dA*dC*dC*dA*dC*dA*dC*dT*dG*dG*dT*dA*dT*dT*dT*dC*dA*dC*dA*dC)", "measuredTarget": "ELAM-1", "ELAM-1 expression (% of control)": "67.2 % of control"}
{"substance": "ISIS 2694: P=S, human ELAM-1 3′-UTR 2933-2953, SEQ ID NO 39, GACAATATACAAACCTTCCAT (antisense dG*dA*dC*dA*dA*dT*dA*dT*dA*dC*dA*dA*dA*dC*dC*dT*dT*dC*dC*dA*dT)", "measuredTarget": "ELAM-1", "ELAM-1 expression (% of control)": "64.6 % of control"}
{"substance": "ISIS 2686: P=S, human ELAM-1 AUG 148-168, SEQ ID NO 36, TGAAGCAATCATGACTTCAAG (antisense dT*dG*dA*dA*dG*dC*dA*dA*dT*dC*dA*dT*dG*dA*dC*dT*dT*dC*dA*dA*dG)", "measuredTarget": "ELAM-1", "ELAM-1 expression (% of control)": "46.9 % of control"}

The measurements presented in this section are drawn from patent US6849612B2.
